test system: Plasmodium berghei; test: Screen against P. berghei liver stage (PbLuc), transformed with Luciferase, at 10uM; type: functional, HepG2; conditions: tested at 10 uM
Screen size: about 69,000 compounds; about 8,600 (12%) showed an effect of 50% or more. The sample as a whole holds a higher share of strong results than the screen did.
attribute measured: INHIBITION

Query: So what does the record say about INHIBITION for CC(C)N(C)Cc1cn2c(n1)CN(C(=O)Cc1ccsc1)CC2 ?
Reply: -9.86%

Query: Also check Cc1cccc(C)c1OCCNC(=O)CN1CCN(C)CC1C (stereo unspecified)
Reply: -17.7%

Query: Also CN(C)Cc1cnc2n1CCN(C(=O)NCc1ccccc1)CC2 ?
Reply: 21.6%

Query: Continue with CCN(CC)Cc1cn2c(n1)CN(C(=O)Cc1ccsc1)CC2
Reply: 73.6%

Query: Also check CN(C)Cc1cc(=O)n2c(n1)CN(C(=O)c1ccc[nH]1)CCC2
Reply: 32.1%

Query: Next: Cc1cc(C(=O)N2CCCC(c3nccn3C)C2)cc(S(N)(=O)=O)c1C (stereo unspecified)
Reply: -2.98%

Query: Now consider O=C(Cc1ccsc1)N1CCn2cc(CN3CCCC3)nc2C1 .
Reply: -63.2%

Query: Continue with CN(Cc1cn2c(n1)CN(C(=O)c1ccc[nH]1)CC2)Cc1ccco1
Reply: 7.31%

Query: Next compound: CC(C)N(C)Cc1cn2c(n1)CN(C(=O)Cc1ccccc1)CC2
Reply: 72.3%

Query: Same question, CCN(CC)Cc1cc(=O)n2c(n1)CN(C(=O)c1ccc[nH]1)CCC2 this time
Reply: 58.4%

Query: Thanks! And OC(c1cnn(-c2ccccc2)c1)C(F)(F)F (stereo unspecified) ?
Reply: 26.5%

====

test system: Plasmodium berghei; assay: Screen against P. berghei liver stage (PbLuc), transformed with Luciferase, at 10uM; type: functional, HepG2; settings: tested at 10 uM
Screen size: about 69,000 compounds; about 8,600 (12%) showed an effect of 50% or more. The sample holds strong results, similar compounds and a random draw of the others, so the mix is not that of the screen.
attribute measured: INHIBITION (%)
Output spec: scalar in %, unitless text.

Query: Sample Cc1ccc(CN2CCCC(c3cncc(C)n3)C2)cn1 (configuration not stated) — what was its INHIBITION?
Reply: -6.3

Query: Queued: CN(Cc1nccn1CC(F)(F)F)C(=O)c1cccc(N(C)C)c1
Reply: -15.7

Query: Next compound up: CC1CCCN(Cc2ccc(CNC(=O)NCc3ccncc3)cc2)C1 (configuration not stated)
Reply: 22.5

Query: What do you have for Cc1nn(C)c(N(C)C)c1CNC(C)COc1ccc(F)cc1F (configuration not stated) ?
Reply: -41.6

Query: Would you mind doing Cc1cncc(C2CCCN(Cc3ccncc3)C2)n1 (configuration not stated) as well?
Reply: 60.4

Query: And for Fc1ccc(NC2CCCN(Cc3ccncc3)C2)cc1 (configuration not stated) ?
Reply: -10.6

Query: Lookup Cn1nc(C2CCCN(Cc3cccc(F)c3)C2)c2nccnc21 (configuration not stated)
Reply: 31.3

Query: One more compound: Cn1nc(C2CCCN(Cc3ccc(F)cc3)C2)c2nccnc21 (configuration not stated)
Reply: 43.6

Query: Another compound: Cc1cncc(C2CCN(Cc3ccncc3)CC2)n1
Reply: 23.3545

Query: Then what about the compound Cc1ncc2c(n1)CCN(CCCc1nc3ccccc3o1)C2 ?
Reply: -65.2

Query: Please give the result for Cc1cc(C2CCCN(Cc3noc(Cc4ccccc4)n3)C2)n[nH]1 (configuration not stated) too.
Reply: -10.8

Query: Let us now turn to CC(C)c1ccc(NC2CCCN(Cc3ccncc3)C2)cc1 (configuration not stated)
Reply: 70.3

====

Give INHIBITION for every item shown.
test system: Plasmodium berghei; assay: Screen against P. berghei liver stage (PbLuc), transformed with Luciferase, at 10uM; assay type: functional, HepG2; details: tested at 10 uM
In all, about 69,000 compounds went through this assay and about 8,600 (12%) showed an effect of 50% or more. For the sample, strong results were picked, then their nearest neighbours and some compounds at random.
// return numeric value only (unit: %, not printed)

Query: Provide the documented INHIBITION with Plasmodium berghei as the system for NC(=O)c1cn2cc(-c3ccccc3Cl)n(CC3CC3)c(=O)c2n1
Reply: 5.46

Query: Similarly, CNC(=O)CC1CCN(Cc2nc(-c3cccc(Cl)c3)oc2C)CC1 ?
Reply: 13.5

Query: Also CNS(=O)(=O)c1ccc(CN2CCCC2c2ccc(F)cc2)cc1 (stereo unspecified) ?
Reply: 51.3

Query: What would you report for Cn1cc(CN2CCC(c3ccncc3)CC2)cn1 ?
Reply: 23.35

Query: Note, next up: CS(=O)(=O)c1ccc(CN2CCCCC2c2ccc(F)cc2)cc1 (stereo unspecified)
Reply: 32.8

Query: // same read-out, input: O=S1(=O)NC2(CCCN(Cc3ccc(F)cc3)C2)COc2ccccc21 (stereo unspecified)
Reply: 0.207

Query: // same read-out, input: CNS(=O)(=O)c1ccc(CN2CCN(Cc3ncccc3C)CC2)cc1
Reply: 49.1

Query: What do you get for CCc1cc(=O)n(CC(=O)N2CCCC2)c(-c2ccccc2)n1 ?
Reply: 4.35

Query: Same again, this time with COc1ccccc1C(C)N(C)Cc1nc2c(cnn2C)c(=O)[nH]1 (stereo unspecified)
Reply: -75.245

Query: // same read-out, input: CN(CCCc1nccn1C)c1nccc(-c2cc(C(=O)O)ccn2)n1
Reply: 14

Query: Same for CNS(=O)(=O)c1ccc(CN2CCCN(c3ccccc3)CC2)cc1
Reply: 48.2

====

test system: Plasmodium berghei; experiment: Screen against P. berghei liver stage (PbLuc), transformed with Luciferase, at 10uM; assay type: functional, HepG2; conditions: tested at 10 uM
Hit rate of the full screen: of about 69,000 compounds, about 8,600 (12%) showed an effect of 50% or more. Many of the other results were omitted from the sample, so strong results are more common in it than they were.
Define the label as 1.0 when INHIBITION is strictly less than 20% and as 0.0 in all remaining cases.

Query: Determine whether this molecule shows INHIBITION lower than 20% (ties excluded): COC(=O)c1cccn1C1CCN(C(=O)c2c(C)noc2C)CC1
Reply: 0.0

Query: Same read-out for Cc1nc(COC[C@@H]2CC[C@H]3NCC[C@H]3O2)cs1 ?
Reply: 0.0

Query: Okay, and COc1ccccc1C(=O)Nc1cc(CC(C)C)nn1C ?
Reply: 1.0

Query: And COc1ccc(CN2CC(O)CN(C(=O)OCC(C)C)CC2=O)cc1 (centres undefined) ?
Reply: 1.0

Query: # repeat for COCCC(Cc1cccc(Br)c1)C(=O)O (centres undefined)
Reply: 1.0

Query: # iterate: CC(C)CC(Cc1cccc(Br)c1)C(=O)O (centres undefined)
Reply: 0.0

Query: Next molecule: O=C(CN1CCC(c2ccccc2)C1)NC(=O)NCC(F)(F)F (centres undefined)
Reply: 0.0

Query: Repeat for the following molecule: Cc1nc(COC[C@H]2CC[C@H]3[C@H](CCN3c3ncccn3)O2)cs1
Reply: 0.0

Query: Lookup Cc1cc(C)n(CCCNC(=O)[C@@H](C)NC(=O)OC(C)(C)C)n1
Reply: 1.0

Query: And what about the molecule Cc1noc(C)c1-c1cccc(C2CCCNC2)n1 (centres undefined) ?
Reply: 1.0

Query: Please give the result for O=C(c1cccnc1)N1CCSCC1 too.
Reply: 0.0

Query: Would you mind doing CC(=O)N1CCCN(C(=O)c2cnc(OC(C)C)c(Cl)c2)CC1 as well?
Reply: 0.0

Query: And what about the molecule CCN1CCCN(C(=O)c2cnc(OC(C)C)c(Cl)c2)CC1 ?
Reply: 0.0

Query: Continue with CC(C)N1CCCCC1c1nc(N(C)C)ncc1I (centres undefined)
Reply: 1.0

Query: What do we get for CC(=O)NCC1CCN(C(=O)NCCc2ccc(Cl)s2)CC1 ?
Reply: 1.0

Query: Input O=C(O)c1cc(S(=O)(=O)N2CCOc3ccccc32)ccc1Br
Reply: 1.0

Query: Another molecule to look at: COCCN1CC[C@@H]2O[C@H](COCc3csc(C)n3)CC[C@@H]21
Reply: 1.0

Query: Follow-up item: Cc1nc(COC[C@@H]2CC[C@H]3[C@H](CCN3S(C)(=O)=O)O2)cs1
Reply: 0.0

Query: Another: CN(CC(O)C(F)(F)F)C(=O)Nc1cccc(N2CCCC2)c1 (centres undefined)
Reply: 1.0

Query: Request: CCN1CCN(C)C(=O)C12CCN(Cc1ccsc1)CC2
Reply: 1.0

Query: Also O=C(c1cnc(-c2cccnc2)nc1)N1CCSCC1 , if possible.
Reply: 0.0

Query: Cool, now CCOC(=O)N1[C@@H](c2ccco2)[C@@H](C(=O)O)C[C@]12CCCCNC2=O
Reply: 1.0

Query: Likewise for CC(C)Oc1ncc(C(=O)N2CCC(N(C)C)CC2)cc1Cl ?
Reply: 0.0

Query: Also check CC(O)CN1CCN(C(=O)c2cnc(OC(C)C)c(Cl)c2)CC1 (centres undefined)
Reply: 0.0

Origin of the recorded values: ChEMBL document CHEMBL4513216
